All values here come from patent US10967068B2.

- ASSAY NOTES: In Vitro Stability Assay—Mouse Plasma
- Assay type: in vitro ADME
- ASSAY CONDITIONS: attachment position L11B
*1 amine or outer side, *2 acyl side, *3 side chain or, on linkers, in order; H or OH if unused. Where a SMILES comes first, the peptide text is derived from it. [ ]: non-standard residue; d: D form. The star is where a group is joined. Dolaproine = CO[C@@H]([C@@H]1CCCN1)[C@@H](C)C(=O)O; Dil = CC[C@H](C)[C@H](NC)[C@@H](CC(=O)O)OC; Benzenesulfonyl = O=S(=O)(c1ccccc1)*; PABC = O=C(OCc1ccc(N[*:1])cc1)[*:2]; Doe = c1ccc(C[C@H](N*)c2nccs2)cc1; Cit = NC(=O)NCCC[C@H](N)C(=O)O; dLac = C[C@@H](O)C(=O)O; PhAc = O=C(Cc1ccccc1)*; Lac = C[C@H](O)C(=O)O; Me2Gly = CN(C)CC(=O)*; Aib = CC(C)(N)C(=O)O
We use 0.7 as the dividing line for DAR after plasma incubation for 3 to 4.5 days: on or above the line is True, below is False.

The examples below pair each entry with its known result.
Ask: Determine whether measured DAR after plasma incubation for 3 to 4.5 days meets or exceeds 0.7 for CC[C@H](C)[C@@H]([C@@H](CC(=O)N1CCC[C@H]1[C@H](OC)[C@@H](C)C(=O)N[C@@H](Cc1ccccc1)c1nccs1)OC)N(C)C(=O)[C@@H](NC(=O)C(C)(C)NC(=O)OCc1ccc(NC(=O)[C@H](CCCNC(N)=O)NC(=O)[C@@H](NC(=O)[C@H](CCCCN)NC(=O)C(C)(C)N)C(C)C)cc1)C(C)C [Example 31] (H-[Aib]KV[Cit][PABC][Aib]V[Dil][Dolaproine]-Doe)
Reply: False

Ask: Is the recorded value of DAR after plasma incubation for 3 to 4.5 days equal to or greater than 0.7 for this molecule? CC[C@H](C)[C@@H]([C@@H](CC(=O)N1CCC[C@H]1[C@H](OC)[C@@H](C)C(=O)N[C@@H](Cc1ccccc1)c1nccs1)OC)N(C)C(=O)[C@@H](NC(=O)C(C)(C)NC(=O)OCc1ccc(NC(=O)[C@H](CCCNC(N)=O)NC(=O)[C@@H](NC(=O)[C@H](CCCCN)NC(=O)[C@@H](C)O)C(C)C)cc1)C(C)C [Example 41] (H-[dLac]KV[Cit][PABC][Aib]V[Dil][Dolaproine]-Doe)
Reply: True

Ask: Determine whether measured DAR after plasma incubation for 3 to 4.5 days meets or exceeds 0.7 for CC[C@H](C)[C@@H]([C@@H](CC(=O)N1CCC[C@H]1[C@H](OC)[C@@H](C)C(=O)N[C@@H](Cc1ccccc1)c1nccs1)OC)N(C)C(=O)[C@@H](NC(=O)C(C)(C)NC(=O)OCc1ccc(NC(=O)[C@H](CCCNC(N)=O)NC(=O)[C@@H](NC(=O)[C@H](CCCCN)NS(=O)(=O)c2ccccc2)C(C)C)cc1)C(C)C [Example 45] (Benzenesulfonyl-KV[Cit][PABC][Aib]V[Dil][Dolaproine]-Doe)
Reply: False

Ask: Please tell me: is the molecule CC[C@H](C)[C@@H]([C@@H](CC(=O)N1CCC[C@H]1[C@H](OC)[C@@H](C)C(=O)N[C@@H](Cc1ccccc1)c1nccs1)OC)N(C)C(=O)[C@@H](NC(=O)C(C)(C)NC(=O)OCc1ccc(NC(=O)[C@H](CCCNC(N)=O)NC(=O)[C@@H](NC(=O)[C@H](CCCCN)NC(=O)CN(C)C)C(C)C)cc1)C(C)C [Example 28] (Me2Gly-KV[Cit][PABC][Aib]V[Dil][Dolaproine]-Doe) at or over 0.7 in terms of DAR after plasma incubation for 3 to 4.5 days?
Reply: False

Ask: Hi, just wondering whether CC[C@H](C)[C@@H]([C@@H](CC(=O)N1CCC[C@H]1[C@H](OC)[C@@H](C)C(=O)N[C@@H](Cc1ccccc1)c1nccs1)OC)N(C)C(=O)[C@@H](NC(=O)C(C)(C)NC(=O)OCc1ccc(NC(=O)[C@H](CCCNC(N)=O)NC(=O)[C@@H](NC(=O)[C@H](CCCCN)NC(=O)[C@@H](N)CO)C(C)C)cc1)C(C)C [Example 38] (H-SKV[Cit][PABC][Aib]V[Dil][Dolaproine]-Doe) shows DAR after plasma incubation for 3 to 4.5 days of 0.7 or higher.
Reply: True

Ask: Check if DAR after plasma incubation for 3 to 4.5 days >= 0.7 (inclusive). Item: CC[C@H](C)[C@@H]([C@@H](CC(=O)N1CCC[C@H]1[C@H](OC)[C@@H](C)C(=O)N[C@@H](Cc1ccccc1)c1nccs1)OC)N(C)C(=O)[C@@H](NC(=O)C(C)(C)NC(=O)OCc1ccc(NC(=O)[C@H](CCCNC(N)=O)NC(=O)[C@@H](NC(=O)[C@H](CCCCN)NC(=O)Cc2ccccc2)C(C)C)cc1)C(C)C [Example 3] (PhAc-KV[Cit][PABC][Aib]V[Dil][Dolaproine]-Doe)
Reply: False

Ask: Could you please find out whether CC[C@H](C)[C@@H]([C@@H](CC(=O)N1CCC[C@H]1[C@H](OC)[C@@H](C)C(=O)N[C@@H](Cc1ccccc1)c1nccs1)OC)N(C)C(=O)[C@@H](NC(=O)C(C)(C)NC(=O)OCc1ccc(NC(=O)[C@H](CCCNC(N)=O)NC(=O)[C@@H](NC(=O)[C@H](CCCCN)NC(=O)[C@H](C)O)C(C)C)cc1)C(C)C [Example 40] (H-[Lac]KV[Cit][PABC][Aib]V[Dil][Dolaproine]-Doe) has DAR after plasma incubation for 3 to 4.5 days that meets 0.7 or exceeds it?
Reply: True

Ask: Confirm if DAR after plasma incubation for 3 to 4.5 days reported for the molecule CC[C@H](C)[C@@H]([C@@H](CC(=O)N1CCC[C@H]1[C@H](OC)[C@@H](C)C(=O)N[C@@H](Cc1ccccc1)c1nccs1)OC)N(C)C(=O)[C@@H](NC(=O)C(C)(C)NC(=O)OCc1ccc(NC(=O)[C@H](CCCNC(N)=O)NC(=O)[C@@H](NC(=O)[C@@H](N)CCCCN)C(C)C)cc1)C(C)C [Example 33] (H-KV[Cit][PABC][Aib]V[Dil][Dolaproine]-Doe) is 0.7 or above.
Reply: False

Moving on to another molecule below.
Ask: Given CC[C@H](C)[C@@H]([C@@H](CC(=O)N1CCC[C@H]1[C@H](OC)[C@@H](C)C(=O)N[C@@H](Cc1ccccc1)c1nccs1)OC)N(C)C(=O)[C@@H](NC(=O)C(C)(C)NC(=O)OCc1ccc(NC(=O)[C@H](CCCNC(N)=O)NC(=O)[C@@H](NC(=O)[C@H](CCCCN)NC(=O)CN)C(C)C)cc1)C(C)C [Example 29] (H-GKV[Cit][PABC][Aib]V[Dil][Dolaproine]-Doe) , state whether its DAR after plasma incubation for 3 to 4.5 days is at least 0.7.
Reply: True
